- System: Indolethylamine N-methyltransferase (Oryctolagus cuniculus)
- Procedure summary: In vivo evaluation of specific activity against rabbit lung Indoleethylamine-N-methyltransferase at oral dose of 25 mg/kg
Entries and their Specific activity
Include the unit right after the number.

[[record]]
compound = "CN1CCS/C1=N\\C(=O)CCC(=O)/N=C1/SCCN1C"
recorded_value = "14100 dpm"

[[record]]
compound = "CC(=O)NC(Cc1ccccc1)C(=O)/N=C1\\SCCN1C (stereo not given)"
recorded_value = "24100 dpm"

[[record]]
compound = "CN1CCS/C1=N\\C(=O)/N=C1\\SCCN1C"
recorded_value = "61200 dpm"

[[record]]
compound = "CN1CCS/C1=N\\C(=O)c1cccnc1"
recorded_value = "18400 dpm"


Here's the next entry for you.
Entry `CC(=O)NCC(=O)/N=C1\SCCN1C` has what Specific activity? 11600 dpm

----------
- Procedure summary: Dose that causes approximately 50% lethality in mice, when given perorally
- Format: ADME, organism-based
- Conditions used: mouse, in vivo, po
Measured parameter: LD50 (mg/kg)
Please respond with the number in mg/kg and leave the unit unwritten.

Entry `CCNC(=O)/N=C1\SCCN1C` has what LD50? 203

Entry `CN1CCS/C1=N\C(=O)OC(C)(C)C` has what LD50? 306

Entry CC(=O)NC(Cc1ccccc1)C(=O)/N=C1\SCCN1C (centres undefined) has what LD50? 173

----------
- Study system: Indolethylamine N-methyltransferase (Homo sapiens) (UniProt O95050)
- Sequence (O95050 whole entry): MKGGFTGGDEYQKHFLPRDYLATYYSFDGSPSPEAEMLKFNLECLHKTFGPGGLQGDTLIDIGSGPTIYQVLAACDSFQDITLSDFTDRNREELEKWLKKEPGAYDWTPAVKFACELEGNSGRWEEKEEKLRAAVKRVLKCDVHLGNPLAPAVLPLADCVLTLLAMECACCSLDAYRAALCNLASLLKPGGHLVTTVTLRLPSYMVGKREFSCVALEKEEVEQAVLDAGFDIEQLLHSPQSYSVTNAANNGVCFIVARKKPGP
- Procedure summary: In vitro evaluation of Indoleethylamine-N-methyltransferase in human lung preparations for the ability to inhibit conversion of N-methyltryptamine (NMT) to N,N-dimethyltryptamine (DMT) at dose 25 ug/mL
- Assay type: tissue-based
Entries and their inhibition
Please respond with the number in % and leave the unit unwritten.

Below, each entry is followed by its recorded inhibition result.
[[record]]
compound = "CN1CCS/C1=N\\C(=O)CCC(=O)O"
recorded_value = 20

[[record]]
compound = "CN1CCS/C1=N\\C(=O)c1cccnc1"
recorded_value = 5

[[record]]
compound = "CCNC(=O)/N=C1\\SCCN1C"
recorded_value = 0

[[record]]
compound = "CC(=O)NCC(=O)/N=C1\\SCCN1C"
recorded_value = 51

[[record]]
compound = "CN1CCS/C1=N\\C(=O)/N=C1\\SCCN1C"
recorded_value = 0

[[record]]
compound = "CC(=O)NC(Cc1ccccc1)C(=O)/N=C1\\SCCN1C (centres undefined)"
recorded_value = 23

[[record]]
compound = "CC(=O)CC(=O)/N=C1\\SCCN1C"
recorded_value = 51

[[record]]
compound = "CN1CCS/C1=N\\C(=O)CN"
recorded_value = 54


Here's the next entry for you.
Entry `CN1CCS/C1=N\C(=O)OC(C)(C)C` has what inhibition? 6

----------
Entries and their inhibition
- Test system: Indolethylamine N-methyltransferase (Oryctolagus cuniculus)
- Procedure summary: Compound tested for inhibitory activity against rabbit lung Indoleethylamine-N-methyltransferase at oral dose 25 mg/kg
Please respond with the number in % and leave the unit unwritten.

Below, each entry is followed by its recorded inhibition result.
[[record]]
compound = "CC(=O)NC(Cc1ccccc1)C(=O)/N=C1\\SCCN1C (centres undefined)"
study_system = "Indolethylamine N-methyltransferase (Oryctolagus cuniculus)"
measured_parameter = "inhibition"
recorded_value = 69

[[record]]
compound = "CC(=O)NCC(=O)/N=C1\\SCCN1C"
study_system = "Indolethylamine N-methyltransferase (Oryctolagus cuniculus)"
measured_parameter = "inhibition"
recorded_value = 84.9


Value wanted: inhibition (Indolethylamine N-methyltransferase (Oryctolagus cuniculus)) of entry `CN1CCS/C1=N\C(=O)/N=C1\SCCN1C` 31.9

Value wanted: inhibition (Indolethylamine N-methyltransferase (Oryctolagus cuniculus)) of entry `CN1CCS/C1=N\C(=O)CCC(=O)/N=C1/SCCN1C` 76.1
